The reported numbers originate from PubChem BioAssay AID2060498.

Test system: 171881-019-R-J1-PDC tumor spheroids, viability;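 further: spheroids exposed to compounds for 7 days; 100% = DMSO vehicle control viability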
Experiment: Anticancer human tumor 171881-019-R-J1-PDC patient-derived invasive breast carcinoma cell line growth inhibition [GQUAD]
Details: second compound 3.16 µM; first compound 10 µM; hits give low values; spheroids with HUVEC and MSC

# MOLECULE, viability, T/C
measured = [
    ("O=C(NO)c1cnc(N2CCN(S(=O)(=O)c3ccc4ccccc4c3)CC2)nc1 + Cc1[nH]c2ccc(F)cc2c1-c1nc2c3cccnc3c3ncccc3c2[nH]1", "0.28%"),
    ("COc1ccc([C@@H](O)c2cc(-c3ncnc4cc(N5CCOCC5)ccc34)c(F)cc2Cl)nn1 + Cc1[nH]c2ccc(F)cc2c1-c1nc2c3cccnc3c3ncccc3c2[nH]1", "4.66%"),
    ("CC1COCCN1c1cc(C2(O)CC3CCC(C2)O3)c2cnn(-c3ccn[nH]3)c2n1 (stereo not drawn) + Cc1cnc(CNC(=O)c2c(=O)c3ccc(N4CCCN(C)CC4)nc3n3c2sc2ccccc23)cn1", "0.23%"),
    ("CCCS(=O)(=O)Nc1ccc(F)c(C(=O)c2c[nH]c3ncc(-c4ccc(Cl)cc4)cc23)c1F + CN(C)c1ccc(Nc2c3ccc(NC(=O)CCN4CCCC4)cc3nc3cc(NC(=O)CCN4CCCC4)ccc23)cc1", "0.53%"),
    ("CC1COCCN1c1cc(C2(S(C)(=N)=O)CC2)nc(-c2ccnc3[nH]ccc23)n1 (stereo not drawn) + Cc1[nH]c2ccc(F)cc2c1-c1nc2c3cccnc3c3ncccc3c2[nH]1", "6.81%"),
    ("C=CCn1c(=O)c2cnc(Nc3ccc(N4CCN(C)CC4)cc3)nc2n1-c1cccc(C(C)(C)O)n1 + Cc1[nH]c2ccc(F)cc2c1-c1nc2c3cccnc3c3ncccc3c2[nH]1", "4.35%"),
    ("COc1cccc2c1C(=O)c1c(O)c3c(c(O)c1C2=O)CC(O)(C(=O)CO)CC3OC1CC(N)C(O)C(C)O1 (stereo not drawn) + Cc1[nH]c2ccc(F)cc2c1-c1nc2c3cccnc3c3ncccc3c2[nH]1", "0.81%"),
    ("CC(C)(O)C1CCC(Nc2ccc3ncc(-c4cccc(C(F)(F)F)c4)n3n2)CC1 (stereo not drawn) + Cc1[nH]c2ccc(F)cc2c1-c1nc2c3cccnc3c3ncccc3c2[nH]1", "0.75%"),
    ("O=C(c1cc(Cc2n[nH]c(=O)c3ccccc23)ccc1F)N1CCN(C(=O)C2CC2)CC1 + Cc1cnc(CNC(=O)c2c(=O)c3ccc(N4CCCN(C)CC4)nc3n3c2sc2ccccc23)cn1", "55.7%"),
    ("O=C(c1cc(Cc2n[nH]c(=O)c3ccccc23)ccc1F)N1CCN(C(=O)C2CC2)CC1 + Cc1[nH]c2ccc(F)cc2c1-c1nc2c3cccnc3c3ncccc3c2[nH]1", "25.7%"),
    ("COc1ccc([C@@H](O)c2cc(-c3ncnc4cc(N5CCOCC5)ccc34)c(F)cc2Cl)nn1 + Cc1cnc(CNC(=O)c2c(=O)c3ccc(N4CCCN(C)CC4)nc3n3c2sc2ccccc23)cn1", "4.88%"),
    ("Cc1cccc(N(C)C(=O)C2C(O)CCN2c2nc(C)cc(C(F)(F)F)c2C#N)c1 (stereo not drawn) + Cc1cnc(CNC(=O)c2c(=O)c3ccc(N4CCCN(C)CC4)nc3n3c2sc2ccccc23)cn1", "67.8%"),
    ("CC1COCCN1c1cc(C2(S(C)(=N)=O)CC2)nc(-c2ccnc3[nH]ccc23)n1 (stereo not drawn) + CN(C)c1ccc(Nc2c3ccc(NC(=O)CCN4CCCC4)cc3nc3cc(NC(=O)CCN4CCCC4)ccc23)cc1", "0.35%"),
]
